Quick reference: pIC50 of the listed items.
experimental-target: purified Z-AAT protein from human plasma (Homo sapiens, UniProt P01009, E366K/V237A)
Construct: Purified Z-AAT protein from human plasma; Vertex Cambridge Sample 4942)
Sequence (P01009 25-418 V237A/E366K): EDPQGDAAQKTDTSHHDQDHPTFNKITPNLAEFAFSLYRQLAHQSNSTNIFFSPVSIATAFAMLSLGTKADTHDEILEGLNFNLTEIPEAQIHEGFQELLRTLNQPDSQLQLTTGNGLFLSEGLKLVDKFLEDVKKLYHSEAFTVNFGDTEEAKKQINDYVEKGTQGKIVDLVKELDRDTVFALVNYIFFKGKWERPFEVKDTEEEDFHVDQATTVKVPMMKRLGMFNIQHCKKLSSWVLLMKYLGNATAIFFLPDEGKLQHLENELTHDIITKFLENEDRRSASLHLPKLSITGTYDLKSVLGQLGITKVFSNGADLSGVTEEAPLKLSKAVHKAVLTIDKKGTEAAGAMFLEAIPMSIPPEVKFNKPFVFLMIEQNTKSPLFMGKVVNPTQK
test: Biochemical Assay (Z-AAT Elastase Activity Assay)
run-parameters: purified Z-AAT pre-incubated with compound 1 hour, then hNE and elastase substrate V
pIC50: −log10 of the molar value.
property-label: pIC50

>>> measured("Cc1cc(-n2c3c(c4c(O)cccc42)[C@]2(CC[C@](F)(C(=O)O)CC2)OCC3(C)C)ccc1F")
"< 5.52"
>>> measured("CC1(C)OCC(C)(c2ccc(C(=O)O)s2)c2c1n(-c1ccc(F)cc1)c1cccc(O)c21 (centres unmarked) [Compound 195]")
"< 5.52"
>>> measured("CO[C@]1(C(=O)O)CC[C@]2(CC1)OCC(C)(C)c1c2c2c(O)cccc2n1-c1ccc(F)cc1")
"< 4.52"
>>> measured("CC1(C(=O)O)CCC2(C1)OCC(C)(C)c1c2c2c(O)cccc2n1-c1ccc(F)cc1 (racemic) [Compound 133]")
"< 5.52"
>>> measured("CC1(C)COC(C)(c2ccc(C(=O)O)cc2F)c2c1n(-c1ccc(Cl)cc1)c1cccc(O)c21 (centres unmarked)")
"5.52 to 5.92"
>>> measured("CC1(C(=O)O)CC2(C1)OCCC(C)(C)c1c2c2c(O)cccc2n1-c1ccc(F)cc1 (centres unmarked)")
"< 5.52"
>>> measured("Cc1cc(-n2c3c(c4c(O)cccc42)[C@]2(C[C@H](C(=O)O)C2)OCC3(C)C)ccc1F")
"< 5.52"
>>> measured("CC1(C)COC(C)(CC2(C(=O)O)CCC2)c2c1n(-c1ccc(F)cc1)c1cccc(O)c21 (centres unmarked)")
"< 4.52"
>>> measured("CC1(C)CO[C@]2(CC[C@@](F)(C(=O)O)CC2)c2c1n(-c1ccc(F)c(F)c1)c1cccc(O)c12")
"< 5.52"
>>> measured("CC1(C)COC2(CCC(C(=O)O)OC2)c2c1n(-c1ccc(F)cc1)c1cccc(O)c21 (centres unmarked) [Compound 141]")
"< 4.52"
>>> measured("CC1(C)COC(C)(c2ccc(C(=O)O)s2)c2c1n(-c1ccc(F)c(F)c1)c1cccc(O)c21 (centres unmarked) [Compound 56]")
"5.52 to 5.92"
>>> measured("CC1(C)COC(C)(c2ccc(OCC(=O)O)cc2)c2c1n(-c1ccc(F)c(F)c1)c1cccc(O)c21 (centres unmarked)")
"> 5.92"
>>> measured("CC1(C)COC(C)(Cc2ccc(C(=O)O)cc2)c2c1n(-c1ccc(F)cc1)c1cccc(O)c21 (centres unmarked)")
"5.52 to 5.92"
>>> measured("CC1(C)COC(CCCC(=O)O)(C(F)(F)F)c2c1n(-c1ccc(F)cc1)c1cccc(O)c21 (centres unmarked)")
"< 4.52"
>>> measured("CC1(C)COC(C)(c2csc(C(=O)O)c2)c2c1n(-c1ccc(F)c(F)c1)c1cc(F)cc(O)c21 (racemic) [Compound 80]")
"5.52 to 5.92"
>>> measured("CC1(C)COC(C)(c2ccc(C(=O)O)cc2F)c2c1n(-c1cccc(F)c1)c1cccc(O)c21 (centres unmarked)")
"> 5.92"
>>> measured("CC1(C)CO[C@]2(C[C@@H](OCC(=O)O)C2)c2c1n(-c1ccc(F)c(F)c1)c1cccc(O)c12")
"< 5.52"
>>> measured("CC1(C)COC(C)(c2csc(C(=O)O)c2)c2c1n(-c1ccc(F)c(F)c1)c1cccc(O)c21 (centres unmarked) [Compound 53]")
"> 5.92"
>>> measured("CC1(C)CO[C@]2(CC[C@](C)(C(=O)O)CC2)c2c1n(-c1ccc(F)cc1)c1cccc(O)c12")
"< 4.52"
>>> measured("Cc1cc(-n2c3c(c4c(O)cccc42)[C@]2(CC[C@H](C(=O)O)CC2)OCC3(C)C)ccc1F")
"< 5.52"
>>> measured("Cc1cc(-n2c3c(c4c(O)cccc42)[C@]2(C[C@](C)(C(=O)O)C2)OCC3(C)C)ccc1F")
"< 5.52"
>>> measured("CC1(C)CO[C@]2(C[C@@](C)(C(=O)O)C2)c2c1n(-c1ccc(F)cc1)c1ccc(Cl)c(O)c12")
"< 4.52"
>>> measured("CC1(C)COC(C)(c2ccc(C(=O)O)s2)c2c1n(-c1ccc(F)c(F)c1)c1cc(F)cc(O)c21 (centres unmarked)")
"> 5.92"
>>> measured("CC1(C)COC(C)(CCC(=O)O)c2c1n(-c1ccc(F)cc1)c1cccc(O)c21 (centres unmarked)")
"< 4.52"
>>> measured("CC1(C)COC(C)(c2ccc(C(=O)O)cc2F)c2c1n(-c1ccc(F)c(F)c1)c1cc(F)cc(O)c21 (centres unmarked)")
"< 5.52"
>>> measured("CC1(C)COC2(CC3(CC(C(=O)O)C3)C2)c2c1n(-c1ccc(F)cc1)c1cccc(O)c21 (single isomer, unassigned) [Compound 152]")
"< 4.52"
>>> measured("Cc1cc(-n2c3c(c4c(O)cccc42)[C@@]2(CC[C@H](C(=O)O)C2)OCC3(C)C)ccc1F")
"< 4.52"
>>> measured("CC1(C)CO[C@]2(C[C@](C(=O)O)(C(F)(F)F)C2)c2c1n(-c1ccc(F)c(F)c1)c1cccc(O)c12")
"< 5.52"
>>> measured("CC1(C(=O)O)CCC2(C1)OCC(C)(C)c1c2c2c(O)cccc2n1-c1ccc(F)cc1 (racemic) [Compound 136]")
"< 5.52"

###

experimental-target: purified Z-AAT protein from human plasma (Homo sapiens, UniProt P01009, E366K/V237A)
Construct: Purified Z-AAT protein from human plasma; Vertex Cambridge Sample 4942)
test: Biochemical Assay (Z-AAT Elastase Activity Assay)
run-parameters: purified Z-AAT pre-incubated with compound 1 hour, then hNE and elastase substrate V
Quick reference: IC50 of the listed items.
property-label: IC50

>>> measured("CC1(C)CO[C@]2(C[C@@H](CC(=O)O)C2)c2c1n(-c1ccc(F)cc1)c1cccc(O)c12")
"> 30 µM"
>>> measured("COc1cc(C(=O)O)ccc1C1(C)OCC(C)(C)c2c1c1c(O)cccc1n2-c1ccc(F)cc1 (stereo not shown)")
"< 1.2 µM"
>>> measured("CC1(C)COC(C)(c2cccc(C(=O)O)c2)c2c1n(-c1ccc(F)c(F)c1)c1cc(F)cc(O)c21 (single isomer, unassigned) [Compound 77]")
"< 1.2 µM"
>>> measured("CC1(C)CO[C@]2(C[C@](C(=O)O)(C(F)(F)F)C2)c2c1n(-c1ccc(F)cc1)c1cc(F)cc(O)c12")
"< 1.2 µM"

###

experimental-target: NL20 human bronchial epithelial cells expressing human Z-AAT (Homo sapiens, UniProt P01009, E366K)
Sequence (P01009 25-418 E366K): as the sequence (P01009 25-418 V237A/E366K) above, with A213V counted along it
test: AAT Function Assay (MSD Assay NL20-SI Cell Line)
run-parameters: functionally active AAT in supernatant of NL20 cells expressing human Z-AAT, complex with hNE, MSD readout; read-out: NL20 Functional EC50
pEC50: −log10 of the molar value.
property-label: pEC50

>>> measured("CC1(C)CO[C@]2(CC[C@@](C)(C(=O)O)CC2)c2c1n(-c1ccc(F)cc1)c1cccc(O)c12 [Compound 160]")
"> 5.92"
>>> measured("CC1(C)CO[C@]2(CC[C@@](C(=O)O)(C(F)F)CC2)c2c1n(-c1ccc(F)cc1)c1cccc(O)c12 [Compound 177]")
"< 5.52"
>>> measured("CC1(C)COC(C)(c2ccc(C(=O)O)cc2)c2c1n(-c1ccc(F)c(F)c1)c1cccc(O)c21 (stereo not shown) [Compound 34]")
"> 5.92"
>>> measured("Cc1cc(-n2c3c(c4c(O)cccc42)[C@]2(C[C@H](C(=O)O)C2)OCC3(C)C)ccc1F [Compound 12]")
"5.52 to 5.92"
>>> measured("Cc1cc(-n2c3c(c4c(O)cccc42)[C@@]2(CC[C@H](C(=O)O)C2)OCC3(C)C)ccc1F [Compound 14]")
"< 5.52"
>>> measured("CC1CC2(CCC1C(=O)O)OCC(C)(C)c1c2c2c(O)cccc2n1-c1ccc(F)cc1 (stereo not shown) [Compound 159]")
"5.52 to 5.92"
>>> measured("CC1(C)COC(C)(c2ccc(C(=O)O)cc2F)c2c1n(-c1ccc(F)cc1)c1cccc(O)c21 (racemic) [Compound 110]")
"5.52 to 5.92"
>>> measured("CC1(C)COC2(CCCC2CC(=O)O)c2c1n(-c1ccc(F)cc1)c1cccc(O)c21 (stereo not shown) [Compound 134]")
"< 5.52"
>>> measured("CC1(C)COC2(CC3(CC(C(=O)O)C3)C2)c2c1n(-c1ccc(F)cc1)c1cccc(O)c21 (single isomer, unassigned) [Compound 151]")
"< 5.52"
>>> measured("Cc1cc(C(=O)O)ccc1C1(C)OCC(C)(C)c2c1c1c(O)cccc1n2-c1ccc(F)cc1 (stereo not shown) [Compound 101]")
"5.52 to 5.92"

Source of measurements: patent US12502376B2
